# System: KM12 colon
# EXPERIMENT DESCRIPTION: NCI tumour cell line growth inhibition, 48 h

| MOLECULE | TEST TARGET | TGI |
| --- | --- | --- |
| O=C(O)CNCP(=O)(O)O | KM12 colon | > 100 µM |
| CC(=O)Nc1ccccc1S(=O)(=O)c1ccccc1 | KM12 colon | > 100 µM |
| CCOC(=O)C(C)c1nc2cc(N3CCOCC3)c(F)cc2[nH]c1=O (centres undefined) | KM12 colon | > 100 µM |
| COc1ccc(Cc2c(-c3ccc(C)cc3)n[nH]c(=O)c2C2C(=O)N(c3ccccc3)N=C2c2ccccc2)cc1 (centres undefined) | KM12 colon | 57.1 µM |
| CCOC(=O)C1(C)CCCc2sc(N)c(C#N)c21 (centres undefined) | KM12 colon | > 100 µM |
| CCOC(=O)/C(=C/c1ccc(C(F)(F)F)cc1)N(CC)CC | KM12 colon | > 100 µM |
| CC(C)OP(=O)(OC(C)C)c1ncc(-c2ccc(C(F)(F)F)cc2)c(NC2CCCCCC2)n1 | KM12 colon | > 10 µM |
| O=C(O)c1cccc(SSc2cccc(C(=O)O)c2)c1 | KM12 colon | > 100 µM |
| CC(C)(O)[C@@H]1CC[C@](C)(C2[C@@H](O)C[C@@]3(C)C4C[C@H](OC5OCC(O)C(O)C5O)[C@H]5C(C)(C)[C@@H](OC6OCC(O)C(O)C6OC6OCC(O)C(O)C6O)CC[C@@]56C[C@@]46CC[C@]23C)O1 (some centres undefined) | KM12 colon | > 100 µM |

====

Each item that follows carries a reported TGI.
# Test system: MOLT-4 leukemia
# EXPERIMENT DESCRIPTION: NCI tumour cell line growth inhibition, 48 h

| MOLECULE | RESULT QUALIFIER | TGI, µM |
| --- | --- | --- |
| CC(=O)OC(C[C@H](C)[C@@H]1CC[C@]2(C)C3=CCC4C(C)(C)C(=O)CC[C@]4(C)C3CCC12C)C1OC1(C)C (some centres not stated) | > | 100 |
| CCN(CC)c1ccc2cc3ccc(=[N+](CC)CC)cc-3oc2c1 | = | 2.09 |
| N#C/C(=C1C=C/C(=N/O)C(Cl)=C/1)c1ccc(Cl)cc1 | = | 7.65 |
| COc1cc2nc3c(=C(C#N)C#N)c4ccccc4n3c(=O)c2cc1OC | > | 100 |
| CC1=C(Cc2ccccc2)C(Cc2ccccc2)=C(C)S1=O | = | 41.5 |
| Cn1c(-c2cccc(N)c2)[n+](C)c2ccccc21 | > | 100 |
| O=C1CSC(c2ccc([N+](=O)[O-])cc2)N1c1nc(-c2ccc3c(c2)CCCC3)cs1 (configuration not stated) | > | 100 |
| C=CCN(N=O)C(=O)NCCCC(NC(C)=O)C(=O)NCc1ccccc1 (configuration not stated) | > | 100 |
| O=C1C(Br)=C(C2=CC(=P(c3ccccc3)(c3ccccc3)c3ccccc3)C=C2)C(=O)C(Br)=C1C1=CC(=P(c2ccccc2)(c2ccccc2)c2ccccc2)C=C1 | > | 100 |
| CC(C)C[C@@H](NC(=O)[C@@H](Cc1cccc2ccccc12)NC(=O)N1CCOCC1)B(O)O | = | 96.5 |
| Fc1cccc(F)c1C1SCc2nc3cc4ccccc4cc3n21 (configuration not stated) | = | 81.5 |
| O=C(O)c1cccc(SSc2cccc(C(=O)O)c2)c1 | > | 100 |

Data origin, for the record: PubChem BioAssay (NCI)
